Biological target: PRMT5/MEP50 (Homo sapiens)
Sequence (O14744 whole entry): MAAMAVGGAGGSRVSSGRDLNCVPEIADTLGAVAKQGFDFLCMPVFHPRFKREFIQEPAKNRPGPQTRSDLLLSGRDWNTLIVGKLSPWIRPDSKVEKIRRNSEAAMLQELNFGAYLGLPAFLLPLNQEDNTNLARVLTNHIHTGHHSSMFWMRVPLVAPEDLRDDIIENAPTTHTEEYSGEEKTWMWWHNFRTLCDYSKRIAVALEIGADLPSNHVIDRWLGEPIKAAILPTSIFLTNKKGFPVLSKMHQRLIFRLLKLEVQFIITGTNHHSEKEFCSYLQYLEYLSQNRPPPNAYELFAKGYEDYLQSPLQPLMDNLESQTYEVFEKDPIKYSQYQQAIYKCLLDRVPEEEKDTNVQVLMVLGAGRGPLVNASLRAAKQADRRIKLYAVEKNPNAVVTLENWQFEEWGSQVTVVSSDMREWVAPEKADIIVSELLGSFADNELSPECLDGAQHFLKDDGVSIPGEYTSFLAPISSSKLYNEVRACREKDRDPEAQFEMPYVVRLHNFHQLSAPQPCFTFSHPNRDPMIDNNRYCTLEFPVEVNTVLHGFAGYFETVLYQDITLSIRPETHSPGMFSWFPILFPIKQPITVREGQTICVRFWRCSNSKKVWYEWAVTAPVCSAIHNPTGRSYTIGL
Sequence (Q9BQA1 whole entry partner): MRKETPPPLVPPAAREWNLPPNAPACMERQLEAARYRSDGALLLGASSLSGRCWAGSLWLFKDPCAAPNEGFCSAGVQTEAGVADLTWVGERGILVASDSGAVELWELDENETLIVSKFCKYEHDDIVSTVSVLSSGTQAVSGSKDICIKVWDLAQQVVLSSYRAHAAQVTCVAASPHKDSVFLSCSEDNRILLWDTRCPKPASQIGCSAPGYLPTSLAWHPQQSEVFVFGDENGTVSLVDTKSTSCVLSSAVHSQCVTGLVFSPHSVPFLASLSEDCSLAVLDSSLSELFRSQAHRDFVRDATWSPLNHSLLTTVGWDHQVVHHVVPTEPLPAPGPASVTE
Experiment: MTase-Glo methyl transferase assay, Method A (Histone H4 peptide, 1 µM MTA, 24 h pre-incubation)
Assay type: biochemical
Design: made in house
Details: read-out: PRMT5 MTase Glo Ki (nM, Meth. A)
// classify: if (Ki < 0.08 nM) satisfied else not satisfied

Cc1cc2cc(C(=O)N(Cc3cc(C#N)ccn3)[C@H](C)c3ncccn3)ccc2nc1N :: not satisfied
Cc1cc2cc(C(=O)N(Cc3ccc(Br)cn3)[C@H](C)c3ncccn3)ccc2nc1N :: satisfied
Cc1cc2cc(C(=O)N(Cc3ccc(C#N)cn3)Cc3ncccc3F)ccc2nc1N :: not satisfied
Cc1cc2cc(C(=O)N(Cc3ccc(Cl)cn3)[C@H](C)c3ncccn3)ccc2nc1N :: satisfied
COC[C@@H](C)N(Cc1ccc(C(F)(F)F)cn1)C(=O)c1ccc2nc(N)c(C)cc2c1 :: not satisfied
